- Test system: HCT-116
- test_method_notes: NCI tumour cell line growth inhibition, 48 h
Activity calls are given as the source filed them. No stated cut-off is given here; in the data, active = GI50 up to about 1.1 µM and inactive = higher.
Respond with a class label; see class 1 (active), class 0 (inactive)

>>> df
                                   compound  qualitative_label
0  CCOC(=O)C1(C)C2=CC=C(O2)C(C)(C)C2=CC=C(O2)C(C)(C)C2=CC=C(O2)C(C)(C)C2=CC=C1O2            class 0
1        Cc1cc(NC2=CC(=O)C(=O)c3ccccc32)no1            class 0
2  CCOC(=O)CC1(C(=O)OCC)c2[nH]c3ccccc3c2CCN1Cc1ccccc1 (stereo not drawn)            class 0
3       CO/C(=N\N=C\c1ccc(OC)cc1OC)c1ccncc1            class 0
4  COc1ccccc1Cn1c2c(c3c(C(=O)NCCN(C)C)c(O)ccc31)C(=O)c1ccccc1C2=O            class 1
5  CCOC(=O)C(CC(C)C)NC(=O)CSc1nnc(COc2ccc(Cl)cc2)n1-c1ccccc1 (stereo not drawn)            class 0
6               Nc1c2ccccc2nc2c1ccc1ncccc12            class 0
7  CC1CCCc2c(-c3ccc(Cl)cc3)nc(N)c(C#N)c21 (stereo not drawn)            class 0

For the next question, use this compound.
(Q) Can you look up the reported call for COC(=O)c1sc(=O)sc1SCc1cccc(CSc2sc(=O)sc2C(=O)OC)c1 for me?
(A) class 0

###

- Test system: SK-MEL-2
- test_method_notes: NCI tumour cell line growth inhibition, 48 h
Calls of active or inactive are those of the source. No stated cut-off is given here; in the data, active = GI50 up to about 1.1 µM and inactive = higher.
Listing of entries alongside the reported GI50.

Example entries begin here.
                                   compound      endpoint_result
0  CC(=O)NC(CC(C)C)C(=O)NC(Cc1ccccc1)C(=S)N1CCCC1 (stereo unspecified)  > 100 µM (inactive)
1         CN1CCN(Cc2nc3c(s2)CCc2sccc2-3)CC1  > 100 µM (inactive)

(Q) Entry O=C(Nc1cc(Cl)c(Cl)cc1Cl)C(=O)C1C=CCS1(=O)=O (stereo unspecified) , system SK-MEL-2: what GI50 was measured?
(A) > 100 µM (inactive)

(Q) SK-MEL-2 / GI50 / OC12c3ccccc3C1CCCCCC21OCCCO1 (stereo unspecified) : value?
(A) > 100 µM (inactive)

(Q) Report GI50 for CCOC(=O)c1cc2c3c(c(C(C)=O)c(O)c2[nH]1)N(CC(C)CC)CC3 (stereo unspecified) tested on SK-MEL-2.
(A) > 100 µM (inactive)

(Q) Provide value of GI50 for this record tested with SK-MEL-2: O=C1c2ccccc2C(=O)c2sc(Nc3cc(Cl)ccc3Cl)nc21
(A) 11.4 µM (inactive)

###

A collection of compounds and their measured GI50
- System: MDA-MB-231
- test_method_notes: NCI tumour cell line growth inhibition, 48 h
Activity calls are given as the source filed them. No stated cut-off is given here; in the data, active = GI50 up to about 1.1 µM and inactive = higher. Peptide text beside a SMILES is read from it. * marks the point of attachment. Boc = CC(C)(C)OC(=O)*; OBn = c1ccc(CO*)cc1; Bn = c1ccc(C*)cc1

Field: example entries. Status: answers known.
compound	GI50
CC1CNC(c2ccc(-c3nc(-c4ccc(C5=NC(C)CN5)cc4)nc(N(C)C)n3)cc2)=N1 (centres undefined)	1.31 µM (inactive)
CC(=O)OCCCCn1cnc2nc(Nc3ccccc3)nc(Cl)c21	35.2 µM (inactive)
Cc1nc(C)c(N2CCN(Cc3ccccc3)CC2)c(O)n1	> 100 µM (inactive)

Here is the next item to consider.
(Q) Which value of GI50 has been reported for CC(C)CC(NC(=O)C(CCC(=O)OCc1ccccc1)NC(=O)OC(C)(C)C)C(=O)NC(COCc1ccccc1)C(=O)NC(Cc1ccccc1)C(=O)O (centres undefined) (Boc-E(OBn)LS(Bn)F-OH; configuration not given here) in the records?
(A) > 100 µM (inactive)

###

- System: CAKI-1
- test_method_notes: NCI tumour cell line growth inhibition, 48 h
The source made the active and inactive calls. Rule as the data show it: active = GI50 up to about 1.1 µM and inactive = higher.
quantity: GI50

# count of solved cases: 5
                                   compound  target_system  quantity      endpoint_result
0  CCC(C)(O)c1cn(-c2cccc(S(=O)(=O)O)c2)nn1 (stereo unspecified)         CAKI-1      GI50  > 100 µM (inactive)
1                     CSc1ccc(NC(=O)CCl)cc1         CAKI-1      GI50   2.97 µM (inactive)
2  COC(=O)C1CCc2c1c(=O)n1c([nH]c3ccccc31)c2C#N (stereo unspecified)         CAKI-1      GI50  > 100 µM (inactive)
3  Nc1nc(N)c(-c2ccccc2)c(CCC(=O)Nc2ccc(Cl)cc2)n1         CAKI-1      GI50  > 100 µM (inactive)
4  Cn1ccc(C(=O)NCCN(CCNC(=O)c2ccn(C)c(=O)c2O)CCNC(=O)c2ccn(C)c(=O)c2O)c(O)c1=O         CAKI-1      GI50  > 100 µM (inactive)

(Q) Form entry - test system: CAKI-1; read-out: GI50; compound: N#Cc1c2ccc([N+](=O)[O-])cc2c(=O)n2c1[nH]c1ccc(C(F)(F)F)cc12
(A) 60.8 µM (inactive)

(Q) Request - read-out GI50 | tested on CAKI-1 | compound N#CC(C#N)=C(N)/C(C#N)=C/c1ccc2[nH]ccc2c1
(A) > 100 µM (inactive)

(Q) Give the reported GI50 for CCC1C(c2ccccc2O)c2cc3c(cc2OC1N1CCOCC1)OCO3 (stereo unspecified) (system: CAKI-1).
(A) 16.6 µM (inactive)

(Q) Requested read-out GI50, target or system CAKI-1, entry CC(C)NC(C)Cc1ccccc1 (stereo unspecified)
(A) > 100 µM (inactive)

(Q) Give recorded GI50 with CAKI-1 for the following compound: O=C(NCCCl)N(O)C(=O)Nc1ccccc1
(A) > 100 µM (inactive)

(Q) Notebook: pull reported GI50 for CAKI-1, entry S=C(N/N=C/c1ccccn1)Nc1ccc(Cl)cc1
(A) < 0.0125 µM (active)

###

In this section, each of the molecules is paired with its reported GI50.
- Tested on: M14
- test_method_notes: NCI tumour cell line growth inhibition, 48 h
Active and inactive are the calls of the source. No stated cut-off is given here; in the data, active = GI50 up to about 1.1 µM and inactive = higher.

Recorded GI50, per entry:
                               query_smiles      endpoint_result
0  O=C(O)c1cc(NC2=C(Cl)C(=O)c3c(O)ccc(O)c3C2=O)ccc1O   > 10 µM (inactive)
1           C(=N/c1ccccc1C1SCCCS1)/c1ccccc1  > 100 µM (inactive)
2             O=S1(=O)OCCOS(=O)(=O)C1(Cl)Cl  > 100 µM (inactive)
3  O=[N+]([O-])c1cc(C2(N3CCCCC3)CCCCC2)sc1Br   7.69 µM (inactive)
4               C=CCn1c(N)c(C#N)c(C#N)c1CCC  > 100 µM (inactive)
5  CS/C(=N\Nc1cnc2ccccc2n1)NS(=O)(=O)c1cc(C)c(Cl)cc1Cl  > 100 µM (inactive)
6  CO[C@@]12CC(=O)/C(=C(O)\C=C\c3ccccc3)C(=O)[C@]1(OC)Cc1ccccc1O2   28.1 µM (inactive)
7  CCOC(=O)[C@H](CCCNC(=O)OC(C)(C)C)NCc1ccc(OC)c(OC)c1  > 100 µM (inactive)

(Q) Quick one: GI50 for NCCCCN(CCCN)Cc1ccccc1 ?
(A) > 100 µM (inactive)

(Q) So what's the measured GI50 for this one? O=C(NC/C(Cl)=C/Cl)Nc1cccc2c1CCCC2
(A) > 100 µM (inactive)

(Q) Requested read-out: GI50. Entry: Cn1ccc(C(=O)NCCN(CCNC(=O)c2ccn(C)c(=O)c2O)CCNC(=O)c2ccn(C)c(=O)c2O)c(O)c1=O
(A) > 100 µM (inactive)

###

- System: SW-620
- test_method_notes: NCI tumour cell line growth inhibition, 48 h
Active and inactive are the calls of the source. Cut-off read from the data, not from the text of the source: active = GI50 up to about 1.1 µM and inactive = higher. Square brackets hold non-standard residues; d marks the D form. Peptide text beside a SMILES is read from it. * marks the point of attachment. Boc = CC(C)(C)OC(=O)*; OBn = c1ccc(CO*)cc1
quantity: GI50

Sample answers from the record:
                                   molecule      endpoint_result
0  CC1S/C(=N\N=C2/C(=O)Nc3ccc(Br)cc32)N(C2CCCCC2)C1=O (stereo not given)   11.7 µM (inactive)
1  CCOc1ccc(NC(=O)CC2SC(Nc3ccc(C)cc3C)=NC2=O)cc1 (stereo not given)  > 100 µM (inactive)
2  CC(C)C(=O)CC(c1ccc(Cl)cc1)N1N=C(C(C)C)CC1c1ccc(Cl)cc1 (stereo not given)   37.2 µM (inactive)
3  C[C@@H](NC(=O)CNC(=O)OC(C)(C)C)C(=O)N[C@@H](Cc1ccccc1)C(=O)OCc1ccccc1 (Boc-Gly-[dA]-Phe-OBn)   61.7 µM (inactive)
4  O=C(NCCC1([N+](=O)[O-])CCN(C(=O)c2ccccc2)CC1)c1ccccc1  > 100 µM (inactive)
5  OC1(c2ccc(Cl)cc2)C(N2CCCC2)c2ccccc2C2=NCCN21 (stereo not given)   20.3 µM (inactive)
6  C[C@]12CC[C@@H]3c4cc(OCC(F)(F)F)c(O)cc4C(=O)C[C@H]3[C@@H]1CC[C@@H]2O   4.02 µM (inactive)
7  COc1ccc(N[C@H](CSc2ccc(C)cc2)c2ccc(F)cc2)cc1  > 100 µM (inactive)

(Q) Item COC(=O)c1ccccc1OCc1cc(=O)oc2ccc(C)cc12 has what recorded GI50?
(A) > 65.8 µM (inactive)

(Q) Can you look up the measured GI50 of CSc1ncnc2c1cnn2Cc1cn(COCC(O)CO)nn1 (stereo not given) for me?
(A) > 100 µM (inactive)
